# Test system: Histiocytoma U937 cells
# assay_comment: Spontaneous and maximum release of labeled compound, time-resolved fluorometric assay (Eu assay)
# Assay type: cell-based
# condition_parameters: U937 cells labeled with 25 μM compound for 15 min; lysed with 0.125% digitonin in 19% DMSO; time-resolved fluorescence with europium solution
property_name: maximum release (B)
Lab note: write the figure by itself, no unit.

                                   compound        property_name  measured
0  CCC(=O)OCOC(=O)c1cccc(-c2cc(OCCO)cc(-c3cccc(C(=O)OCOC(=O)CC)n3)n2)n1  maximum release (B)     78831

Q: Determine its reported maximum release (B): CCCC(=O)OCOC(=O)c1cccc(-c2cc(OCC=O)cc(-c3cccc(C(=O)OCOC(=O)CCC)n3)n2)n1
A: 43224

Q: State its maximum release (B) for this compound: CC(=O)OCOC(=O)c1cccc(-c2cc(CO)cc(-c3cccc(C(=O)OCOC(C)=O)n3)n2)n1
A: 127955

Q: Output measured maximum release (B) for this item: CCCC(=O)OCOC(=O)c1cccc(-c2cc(OCCCO)cc(-c3cccc(C(=O)OCOC(=O)CCC)n3)n2)n1
A: 103235

Q: Please look at this compound and report its maximum release (B): CC(=O)OCOC(=O)c1cccc(-c2cccc(-c3cccc(C(=O)OCOC(C)=O)n3)n2)n1 [BATDA, reference compound]
A: 86785

---

# System: Histiocytoma U937 cells
# assay_comment: Spontaneous and maximum release of labeled compound, time-resolved fluorometric assay (Eu assay)
# Type: cell-based
# condition_parameters: U937 cells labeled with 25 μM compound for 15 min; supernatant added to europium solution; time-resolved fluorescence; wells without digitonin
Define the label as satisfied when spontaneous release (A) is strictly less than 7000 and as not satisfied in all remaining cases.

Example results:
>>> print(df.to_string())
                                   compound    label_value
0  CCCC(=O)OCOC(=O)c1cccc(-c2cc(OCC=O)cc(-c3cccc(C(=O)OCOC(=O)CCC)n3)n2)n1      satisfied
1  CC(=O)OCOC(=O)c1cccc(-c2cccc(-c3cccc(C(=O)OCOC(C)=O)n3)n2)n1 [BATDA, reference compound]  not satisfied

Query compound follows.
Q: Consider the compound CCCC(=O)OCOC(=O)c1cccc(-c2cc(OCCCO)cc(-c3cccc(C(=O)OCOC(=O)CCC)n3)n2)n1 . Is its spontaneous release (A) strictly less than 7000?
A: not satisfied

---

# Test system: Histiocytoma U937 cells
# assay_comment: Spontaneous and maximum release of labeled compound, time-resolved fluorometric assay (Eu assay)
# Assay type: cell-based
# condition_parameters: U937 cells labeled with 25 μM compound for 15 min; supernatant added to europium solution; time-resolved fluorescence; wells without digitonin
property_name: spontaneous release (A)
Lab note: jot the number down without any unit.

                              smiles_string            property_name  measured
0  CC(=O)OCOC(=O)c1cccc(-c2cc(CO)cc(-c3cccc(C(=O)OCOC(C)=O)n3)n2)n1  spontaneous release (A)     21343

Q: Give the reported value of spontaneous release (A) for this record: CCCNC(=O)COc1cc(-c2cccc(C(=O)OCOC(C)=O)n2)nc(-c2cccc(C(=O)OCOC(C)=O)n2)c1
A: 7085

Q: Consider the compound CC(=O)OCOC(=O)c1cccc(-c2cc(OCCO)cc(-c3cccc(C(=O)OCOC(C)=O)n3)n2)n1 . State its measured spontaneous release (A).
A: 4890

Q: For CCC(=O)OCOC(=O)c1cccc(-c2cc(OCCO)cc(-c3cccc(C(=O)OCOC(=O)CC)n3)n2)n1 , write its spontaneous release (A).
A: 6991

Q: Using known records, supply spontaneous release (A) for CCCC(=O)OCOC(=O)c1cccc(-c2cc(OCCO)cc(-c3cccc(C(=O)OCOC(=O)CCC)n3)n2)n1
A: 6347

Q: Specify reported spontaneous release (A) for the compound shown: CCCC(=O)OCOC(=O)c1cccc(-c2cc(OCCOCCO)cc(-c3cccc(C(=O)OCOC(=O)CCC)n3)n2)n1
A: 6133
